Listing of entries alongside the reported log10(Ki).
Sequence of the target: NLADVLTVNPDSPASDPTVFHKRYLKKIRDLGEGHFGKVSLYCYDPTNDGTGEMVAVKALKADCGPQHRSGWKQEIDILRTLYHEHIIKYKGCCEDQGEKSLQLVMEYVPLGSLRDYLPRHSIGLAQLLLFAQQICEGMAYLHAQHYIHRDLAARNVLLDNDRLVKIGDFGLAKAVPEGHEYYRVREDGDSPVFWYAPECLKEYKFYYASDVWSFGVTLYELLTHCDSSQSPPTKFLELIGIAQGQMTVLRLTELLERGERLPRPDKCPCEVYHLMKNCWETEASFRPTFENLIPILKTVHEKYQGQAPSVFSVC
readout.type: log10(Ki) (log10 of the value in nM)

{"compound": "CC1(n2cnc3cnc4[nH]ccc4c32)CCN(S(=O)(=O)c2cccnc2)CC1", "log10(Ki)": 2.46}
{"compound": "Cc1nc2cnc3[nH]ccc3c2n1C1CCN(Cc2ccccc2)CC1(F)F (racemic)", "log10(Ki)": 1.10}
{"compound": "N#CC1(C(=O)N2CCC[C@@H](n3cnc4cnc5[nH]ccc5c43)C2)CCC1", "log10(Ki)": 1.25}
{"compound": "FC1CNCCC1n1nnc2cnc3[nH]ccc3c21 (racemic)", "log10(Ki)": 1.99}
{"compound": "Cc1nc2cnc3[nH]ccc3c2n1C1CCN(CCF)CC1", "log10(Ki)": 0.84}

* * *

Target: TYK2 (Homo sapiens, UniProt P29597)
Construct: made in house; host or cells: SF9 insect cells (baculovirus)
Experiment: TYK2 inhibition (Table 4)
Type: biochemical
readout.type: log10 of Ki (log10 of the value in nM)

{"molecule": "c1cc2c(ncc3ncn(C4CCNCC4)c32)[nH]1 [Example 28]", "log10 of Ki": 1.90}
{"molecule": "N#CCCN1CCC(n2c(CCC3CC3)nc3cnc4[nH]ccc4c32)CC1 [Example 408]", "log10 of Ki": 2.41}
{"molecule": "CCNC(=O)Cc1nc2cnc3[nH]ccc3c2n1C1CCCOC1 (racemic) [Example 962]", "log10 of Ki": 2.60}
{"molecule": "C[C@@H](O)c1nc2cnc3[nH]ccc3c2n1C1CCCCC1 [Example 671]", "log10 of Ki": 0.39}
{"molecule": "C[C@@H](O)c1nc2cnc3[nH]ccc3c2n1C1CCN(Cc2ccnn2C)CC1 [Example 819]", "log10 of Ki": 2.21}
{"molecule": "O=C(Cc1nc2cnc3[nH]ccc3c2n1C1CCN(Cc2ccccc2)CC1)N1CC(F)C1 [Example 258]", "log10 of Ki": 3.26}
{"molecule": "C[C@@H](O)c1nc2cnc3[nH]ccc3c2n1C1CCCC1 [Example 867]", "log10 of Ki": 1.42}
{"molecule": "N#CCCN1CCC(n2c(CNC(=O)C3CC3)nc3cnc4[nH]ccc4c32)CC1 [Example 500]", "log10 of Ki": 2.60}
{"molecule": "Cc1nc2cnc3[nH]ccc3c2n1C1CCC(NC(=O)N(C)CC(F)F)CC1 (stereo not drawn) [Example 750]", "log10 of Ki": 2.11}
{"molecule": "FC(F)(F)CCN1CCC(n2cnc3cnc4[nH]ccc4c32)CC1 [Example 339]", "log10 of Ki": 1.35}
{"molecule": "OCCOc1nc2cnc3[nH]ccc3c2n1C1CCCOC1 (racemic) [Example 780]", "log10 of Ki": 2.04}
{"molecule": "Cc1nc2cnc3[nH]ccc3c2n1C1CC2CCC1C2 (stereo not drawn) [Example 121a]", "log10 of Ki": 0.37}
{"molecule": "CC1CCCCC1n1c(CNS(C)(=O)=O)nc2cnc3[nH]ccc3c21 (stereo not drawn) [Example 917]", "log10 of Ki": 2.05}
{"molecule": "c1cc2c(ncc3ncn(C4CCCCNC4)c32)[nH]1 (single isomer, unassigned) [Example 110]", "log10 of Ki": 2.81}
{"molecule": "CCN1CCC(n2nnc3cnc4[nH]ccc4c32)C(F)(F)C1 (racemic) [Example 533]", "log10 of Ki": 1.78}
{"molecule": "Cc1ccnn1CCc1nc2cnc3[nH]ccc3c2n1C1CCN(CCC#N)CC1 [Example 410]", "log10 of Ki": 2.50}
{"molecule": "CC(=O)N1CCC(N[C@H]2CC[C@H](n3cnc4cnc5[nH]ccc5c43)CC2)CC1 [Example 555]", "log10 of Ki": 2.48}
{"molecule": "CCN1CCC(n2c(CCNC(C)=O)nc3cnc4[nH]ccc4c32)C(F)(F)C1 (stereo not drawn) [Example 807]", "log10 of Ki": 2.41}

* * *

Target: JAK1 (Homo sapiens, UniProt P23458)
Construct: made in house; host or cells: SF9 insect cells (baculovirus)
Sequence (P23458 852-1154): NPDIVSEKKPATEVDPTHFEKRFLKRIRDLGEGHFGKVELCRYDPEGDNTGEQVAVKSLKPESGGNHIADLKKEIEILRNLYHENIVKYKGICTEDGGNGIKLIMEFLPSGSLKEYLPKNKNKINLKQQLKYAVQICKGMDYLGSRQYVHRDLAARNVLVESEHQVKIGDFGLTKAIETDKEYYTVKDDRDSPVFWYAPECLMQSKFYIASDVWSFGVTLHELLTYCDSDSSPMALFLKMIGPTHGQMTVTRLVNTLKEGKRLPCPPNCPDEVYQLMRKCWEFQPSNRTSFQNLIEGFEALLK
Experiment: JAK1 inhibition (Table 4)
Type: biochemical
Settings: read-out: JAK1 Ki
pKi: −log10 of the molar value.
Listing of entries alongside the reported pKi.

{"line.notation": "CC(C)(C)NCCOCc1nc2cnc3[nH]ccc3c2n1C1CCN(CCC#N)CC1", "pKi": 7.74}
{"line.notation": "Cc1nc2cnc3[nH]ccc3c2n1C1CCN(S(C)(=O)=O)CC1", "pKi": 8.12}
{"line.notation": "CN(C)c1nc2cnc3[nH]ccc3c2n1C1CCN(CCC#N)CC1", "pKi": 7.83}
{"line.notation": "O=C(Cc1nc2cnc3[nH]ccc3c2n1C1CCNCC1)NC1CCCC1", "pKi": 7.53}
{"line.notation": "NC(=O)CN1CCC[C@@H](n2cnc3cnc4[nH]ccc4c32)C1", "pKi": 7.76}

* * *

Molecular target: JAK3 (Homo sapiens)
Construct: made in house; host or cells: SF9 insect cells (baculovirus)
Sequence (P52333 783-1124): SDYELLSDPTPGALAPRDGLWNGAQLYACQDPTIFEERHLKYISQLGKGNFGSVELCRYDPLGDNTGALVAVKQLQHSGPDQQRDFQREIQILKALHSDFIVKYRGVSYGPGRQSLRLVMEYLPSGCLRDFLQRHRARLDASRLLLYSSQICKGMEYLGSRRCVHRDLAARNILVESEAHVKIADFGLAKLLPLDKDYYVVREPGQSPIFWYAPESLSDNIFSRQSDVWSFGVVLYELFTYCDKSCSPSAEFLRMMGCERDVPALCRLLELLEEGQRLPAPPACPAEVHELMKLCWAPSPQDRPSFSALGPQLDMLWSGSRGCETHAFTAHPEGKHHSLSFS
Assay: JAK3 inhibition (Table 4)
Type: biochemical
Details: read-out: JAK3 Ki
Could you please mark T for values of Ki below 70 nM and F for values at or above it?

{"molecule": "Cc1nc2cnc3[nH]ccc3c2n1[C@@H]1CCC[C@](C)(O)C1", "assigned.category": "T"}
{"molecule": "COCCN1CCC[C@@H](n2cnc3cnc4[nH]ccc4c32)C1", "assigned.category": "F"}
{"molecule": "CCC(C)Cc1nc2cnc3[nH]ccc3c2n1C1CCN(CCC#N)CC1 (racemic)", "assigned.category": "F"}
{"molecule": "Cc1nc2cnc3[nH]ccc3c2n1-c1ccc(C#N)cc1", "assigned.category": "F"}
{"molecule": "CCN1CCC(n2c([C@@H](C)O)nc3cnc4[nH]ccc4c32)C(F)(F)C1 (single isomer, unassigned) [Example 880]", "assigned.category": "T"}
{"molecule": "CN(C)CC(=O)N1CCC(n2cnc3cnc4[nH]ccc4c32)CC1", "assigned.category": "F"}

* * *

Biological target: JAK1 (Homo sapiens)
Construct: made in house; host or cells: SF9 insect cells (baculovirus)
Assay: JAK1 inhibition (Table 4)
Assay type: biochemical
Details: read-out: JAK1 Ki
Listing of entries alongside the reported Ki.
readout.type: Ki (nM)

{"molecule": "CCN1CCCC[C@H]1C(=O)N1CCC(n2cnc3cnc4[nH]ccc4c32)CC1", "readout.type": "Ki", "endpoint.value": 44.1}
{"molecule": "N#CCCC1CCC(n2c(C(O)CO)nc3cnc4[nH]ccc4c32)CC1 (centres unmarked)", "readout.type": "Ki", "endpoint.value": 0.8}
{"molecule": "C[C@@H](O)c1nc2cnc3[nH]ccc3c2n1[C@H]1CCCO1", "readout.type": "Ki", "endpoint.value": 327}
{"molecule": "CCN1CCC(n2c(CNS(C)(=O)=O)nc3cnc4[nH]ccc4c32)C(F)(F)C1 (centres unmarked)", "readout.type": "Ki", "endpoint.value": 5.49}
{"molecule": "C[C@@H](O)c1nc2cnc3[nH]ccc3c2n1[C@H]1CCN(Cc2cnco2)C[C@H]1F", "readout.type": "Ki", "endpoint.value": 2.45}
{"molecule": "N#CCCN1CCC(n2c(C(F)F)nc3cnc4[nH]ccc4c32)CC1", "readout.type": "Ki", "endpoint.value": 1.5}
{"molecule": "Cc1nc2cnc3[nH]ccc3c2n1C1CCc2[nH]ncc2C1 (racemic)", "readout.type": "Ki", "endpoint.value": 3.45}
{"molecule": "O=C(Cc1nc2cnc3[nH]ccc3c2n1C1CCCOC1)N1CCC(O)CC1 (racemic)", "readout.type": "Ki", "endpoint.value": 17.5}

* * *

Target: JAK3 (Homo sapiens)
Construct: made in house; host or cells: SF9 insect cells (baculovirus)
Test: JAK3 inhibition (Table 4)
Assay type: biochemical
Conditions: read-out: JAK3 Ki
pKi: −log10 of the molar value.
Could you label it yes (1) if measured pKi is 7 or higher, and no (0) otherwise?

{"compound": "Cn1nccc1C(=O)N1CCC(n2cnc3cnc4[nH]ccc4c32)CC1 [Example 84]", "assigned.category": "no (0)"}
{"compound": "CCN1CC[C@@H](n2c(CCNS(=O)(=O)C(C)C)nc3cnc4[nH]ccc4c32)[C@@H](F)C1 [Example 810]", "assigned.category": "no (0)"}
{"compound": "CCn1nccc1CN1CCC(n2c([C@@H](C)O)nc3cnc4[nH]ccc4c32)CC1 [Example 820]", "assigned.category": "yes (1)"}
{"compound": "CN(C(=O)Cc1nc2cnc3[nH]ccc3c2n1C1CCN(Cc2ccccc2)CC1)C1CCCC1 [Example 101]", "assigned.category": "yes (1)"}
{"compound": "c1ncc(CN[C@H]2CC[C@@H](n3cnc4cnc5[nH]ccc5c43)CC2)cn1 [Example 333]", "assigned.category": "no (0)"}
{"compound": "O=C(CN1CCC(n2cnc3cnc4[nH]ccc4c32)CC1)c1ccccc1 [Example 74]", "assigned.category": "yes (1)"}
{"compound": "C[C@@H](O)c1nc2cnc3[nH]ccc3c2n1[C@@H]1CCCN(C(=O)CCn2ccnc2)C1 [Example 797]", "assigned.category": "no (0)"}
